The values you see were collected from paper PMC8949129.

CI (combination index) by entry:
test system: HeLa cells; assay: Drug combination assay with doxorubicin (MTT, CompuSyn); type: cell-based, human; design: key: CI <1 synergy, ~1 additivity, >1 antagonism; settings: with doxorubicin, 72 h, average over drug ratios at IC50

Molecule: C=Cc1cc(C)cc2c1-c1ccc(O)c(C)c1C(O)C2 (stereo not shown)
CI (combination index): 0.580
--
Molecule: C=Cc1c(C)cc(O)c2c1CCc1c-2cc(-c2c(O)c(C)c(C=C)c3ccc4c(C)c(O)ccc4c23)c(O)c1C
CI (combination index): 0.112
--
Molecule: C=Cc1cc(C)cc2c1-c1ccc(O)c(C)c1CC2
CI (combination index): 0.579
--
Molecule: C=Cc1cc(C)cc2c1-c1ccc(O)c(COC(O)c3ccc(O)cc3)c1CC2 (stereo not shown)
CI (combination index): 0.584
